Tested on: 817829-284-R-J1-PDC complex spheroids, viability;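 further: spheroids exposed to agents for 7 days before readout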
ASSAY_METHOD_TEXT: Anticancer human tumor 817829-284-R-J1-PDC patient-derived colon adenocarcinoma cell line growth inhibition [GQUAD]
EXPERIMENTAL_CONDITIONS: curve of first compound; second compound 1 µM
OBSERVED_PROPERTY: IC50

1. CC(C)n1c(=O)n(C)c2cnc3cc(F)c(-c4ccc(OCCCN5CCCCC5)nc4)cc3c21 + Cc1[nH]c2ccc(F)cc2c1-c1nc2c3cccnc3c3ncccc3c2[nH]1; 7.83 µM
2. COc1ncnc(C2CC2)c1-c1ncc2cnn(Cc3ccc(-c4nc(C(F)(F)F)cn4C(C)C)cc3)c2n1 + Cc1cnc(CNC(=O)c2c(=O)c3ccc(N4CCCN(C)CC4)nc3n3c2sc2ccccc23)cn1; < 0.0316 µM

Now turn to the next molecule.
Note to self: IC50 recorded for CC[C@@]1(O)C(=O)OCc2c1cc1n(c2=O)Cc2cc3c(CN(C)C)c(O)ccc3nc2-1 + Cc1cnc(CNC(=O)c2c(=O)c3ccc(N4CCCN(C)CC4)nc3n3c2sc2ccccc23)cn1 was < 0.000999 µM

Value source: PubChem BioAssay AID2060503
